# assayTarget: PI3Kδ (Homo sapiens, UniProt O00329)
# Construct: endogenous in cells; host or cells: Jurkat (ATCC TIB-152, clone E6-1) and Ramos (ATCC CRL-1596), 1:1 lysate mix
# Sequence (O00329 whole entry): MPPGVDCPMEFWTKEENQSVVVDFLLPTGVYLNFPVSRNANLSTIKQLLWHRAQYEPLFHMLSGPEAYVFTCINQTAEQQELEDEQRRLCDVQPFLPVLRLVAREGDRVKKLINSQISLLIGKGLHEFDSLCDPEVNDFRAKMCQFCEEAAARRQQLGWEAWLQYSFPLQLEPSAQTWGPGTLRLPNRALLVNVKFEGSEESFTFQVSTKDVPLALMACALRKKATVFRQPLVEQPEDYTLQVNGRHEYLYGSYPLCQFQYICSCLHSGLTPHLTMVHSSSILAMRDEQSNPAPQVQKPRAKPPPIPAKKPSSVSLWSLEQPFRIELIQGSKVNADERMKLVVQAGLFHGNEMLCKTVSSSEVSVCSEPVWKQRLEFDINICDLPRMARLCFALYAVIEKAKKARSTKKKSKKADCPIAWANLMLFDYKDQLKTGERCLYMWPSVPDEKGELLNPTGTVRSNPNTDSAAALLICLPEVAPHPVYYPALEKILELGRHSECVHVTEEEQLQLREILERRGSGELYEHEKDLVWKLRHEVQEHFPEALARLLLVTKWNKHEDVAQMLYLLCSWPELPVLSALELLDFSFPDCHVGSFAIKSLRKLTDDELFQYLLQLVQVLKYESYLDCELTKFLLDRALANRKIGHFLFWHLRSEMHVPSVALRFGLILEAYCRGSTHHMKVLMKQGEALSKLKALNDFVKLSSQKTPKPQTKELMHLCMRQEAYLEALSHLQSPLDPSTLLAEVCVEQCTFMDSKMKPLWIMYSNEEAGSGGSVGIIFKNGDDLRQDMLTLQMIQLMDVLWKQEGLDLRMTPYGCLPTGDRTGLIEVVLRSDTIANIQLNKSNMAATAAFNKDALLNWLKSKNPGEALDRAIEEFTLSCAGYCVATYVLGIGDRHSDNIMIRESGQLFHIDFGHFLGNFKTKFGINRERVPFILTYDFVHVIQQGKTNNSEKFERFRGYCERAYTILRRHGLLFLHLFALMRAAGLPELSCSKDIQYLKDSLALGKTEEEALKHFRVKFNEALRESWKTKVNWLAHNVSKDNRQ
# Sequence (P27986 whole entry partner): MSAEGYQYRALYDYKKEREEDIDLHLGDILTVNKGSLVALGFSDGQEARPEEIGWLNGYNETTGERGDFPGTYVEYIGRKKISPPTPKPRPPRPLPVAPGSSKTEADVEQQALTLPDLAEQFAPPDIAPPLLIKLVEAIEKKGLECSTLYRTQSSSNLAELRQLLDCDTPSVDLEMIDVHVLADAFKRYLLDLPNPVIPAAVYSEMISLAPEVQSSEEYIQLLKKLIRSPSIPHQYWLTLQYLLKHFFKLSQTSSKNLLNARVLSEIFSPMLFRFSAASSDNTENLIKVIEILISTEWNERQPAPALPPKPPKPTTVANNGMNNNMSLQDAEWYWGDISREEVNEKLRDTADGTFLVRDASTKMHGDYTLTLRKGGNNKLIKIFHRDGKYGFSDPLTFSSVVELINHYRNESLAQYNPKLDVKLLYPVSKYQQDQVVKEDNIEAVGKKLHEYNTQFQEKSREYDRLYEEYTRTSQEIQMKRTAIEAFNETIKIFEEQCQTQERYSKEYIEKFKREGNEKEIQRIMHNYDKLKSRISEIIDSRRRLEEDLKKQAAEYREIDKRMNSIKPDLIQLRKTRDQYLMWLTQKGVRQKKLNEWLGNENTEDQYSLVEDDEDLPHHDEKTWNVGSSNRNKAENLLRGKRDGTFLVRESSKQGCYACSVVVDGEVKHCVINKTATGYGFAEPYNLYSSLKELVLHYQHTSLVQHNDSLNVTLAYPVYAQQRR
# experimentalDetails: kinobeads assay, PI3Kδ
# Type: binding
# protocolConditions: 1:1 mix of Jurkat and Ramos cell lysates, read-out: Inhibition values (IC50 in μM) as determined in the kinobeads assay, PI3Kδ
Each entry below lists one item and its recorded IC50 value.
measureName: IC50

{"compound": "C[C@H]1COCCN1c1nc2c(c(-c3ccc(NC(=O)Nc4ccncc4)cc3)n1)CNC2", "endpointValue": "10 to 100 µM"}
{"compound": "CC(CO)NC(=O)Nc1ccc(-c2nc(N3CCOC[C@@H]3C)nc3c2CN(C(C)C)C3)cc1 (stereo partly shown) [Example 51, 2,2,2-trifluoroacetate]", "endpointValue": "> 100 µM"}
{"compound": "C[C@H]1COCCN1c1nc2c(c(-c3ccc(NC(=O)NC4CC4)cc3)n1)CN(S(=O)(=O)C1CC1)C2", "endpointValue": "> 100 µM"}
{"compound": "C[C@H]1COCCN1c1nc2c(c(-c3ccc(NC(=O)NC4CC4)cc3)n1)CN(C(=O)CN(C)C)C2", "endpointValue": "10 to 100 µM"}
{"compound": "C[C@H]1COCCN1c1nc2c(c(-c3ccc(NC(=O)NC4CC4)cc3)n1)CN(S(C)(=O)=O)C2", "endpointValue": "> 100 µM"}
{"compound": "C[C@H]1COCCN1c1nc2c(c(-c3ccc(NC(=O)NC4CC4)cc3)n1)CN(C(=O)CCCN)C2", "endpointValue": "10 to 100 µM"}
{"compound": "C[C@H]1COCCN1c1nc2c(c(-c3ccc(NC(=O)NC4CC4)cc3)n1)CN(C(=O)CN1CCOCC1)C2 [Example 47, 2,2,2-trifluoroacetate]", "endpointValue": "> 100 µM"}

---

Each entry below lists one item and its recorded IC50 value.
# assayTarget: PI3Kγ (Homo sapiens, UniProt P48736)
# Construct: endogenous in cells; host or cells: Jurkat (ATCC TIB-152, clone E6-1) and Ramos (ATCC CRL-1596), 1:1 lysate mix
# Sequence (P48736 whole entry): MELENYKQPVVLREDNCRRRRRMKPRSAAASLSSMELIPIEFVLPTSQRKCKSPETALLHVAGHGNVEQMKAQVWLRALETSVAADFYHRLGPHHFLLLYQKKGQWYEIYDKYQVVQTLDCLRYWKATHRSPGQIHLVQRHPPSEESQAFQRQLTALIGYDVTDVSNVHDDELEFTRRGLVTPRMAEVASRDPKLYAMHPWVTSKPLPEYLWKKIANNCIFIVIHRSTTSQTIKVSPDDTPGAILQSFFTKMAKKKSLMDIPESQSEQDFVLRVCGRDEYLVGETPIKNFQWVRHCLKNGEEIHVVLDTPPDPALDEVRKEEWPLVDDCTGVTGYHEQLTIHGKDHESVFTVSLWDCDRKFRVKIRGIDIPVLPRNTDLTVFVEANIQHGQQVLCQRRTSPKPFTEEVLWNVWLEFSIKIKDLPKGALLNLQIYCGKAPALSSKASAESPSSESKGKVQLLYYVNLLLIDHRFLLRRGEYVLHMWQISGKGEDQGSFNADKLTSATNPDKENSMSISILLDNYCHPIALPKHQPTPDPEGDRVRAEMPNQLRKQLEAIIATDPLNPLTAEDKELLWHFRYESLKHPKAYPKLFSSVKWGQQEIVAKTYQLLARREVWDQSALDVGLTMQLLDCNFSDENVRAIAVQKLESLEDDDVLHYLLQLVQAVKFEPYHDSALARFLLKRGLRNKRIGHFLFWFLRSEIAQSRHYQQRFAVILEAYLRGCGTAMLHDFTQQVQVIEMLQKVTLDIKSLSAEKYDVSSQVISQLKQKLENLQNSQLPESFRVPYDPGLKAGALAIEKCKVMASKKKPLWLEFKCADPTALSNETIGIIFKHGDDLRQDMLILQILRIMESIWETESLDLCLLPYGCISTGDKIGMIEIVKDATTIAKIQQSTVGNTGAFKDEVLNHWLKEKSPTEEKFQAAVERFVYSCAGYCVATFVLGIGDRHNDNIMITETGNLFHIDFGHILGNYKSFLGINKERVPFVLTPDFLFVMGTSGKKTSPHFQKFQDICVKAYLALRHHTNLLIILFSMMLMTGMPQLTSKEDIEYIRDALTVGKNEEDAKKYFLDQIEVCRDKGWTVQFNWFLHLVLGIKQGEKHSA
# experimentalDetails: kinobeads assay, PI3Kγ
# Assay type: binding
# protocolConditions: 1:1 mix of Jurkat and Ramos cell lysates, read-out: Inhibition values (IC50 in μM) as determined in the kinobeads assay, PI3Kγ
Structures can show the parent of a compound that is named as a salt.

{"compound": "C[C@H]1COCCN1c1nc2c(c(-c3ccc(NC(=O)NC4CC4)cc3)n1)CN(C(=O)CN)C2", "assayTarget": "PI3Kγ (Homo sapiens, UniProt P48736)", "IC50": "10 to 100 µM"}
{"compound": "CCOC(=O)Nc1ccc(-c2nc(N3CCOC[C@@H]3C)nc3c2CNC3)cc1", "assayTarget": "PI3Kγ (Homo sapiens, UniProt P48736)", "IC50": "> 100 µM"}
{"compound": "C[C@H]1COCCN1c1nc2c(c(-c3ccc(NC(=O)Nc4cccc(O)n4)cc3)n1)CNC2", "assayTarget": "PI3Kγ (Homo sapiens, UniProt P48736)", "IC50": "1 to 10 µM"}
{"compound": "C[C@H]1COCCN1c1nc2c(c(-c3ccc(NC(=O)NC4CC4)cc3)n1)CN(C(=O)C1CCCN1)C2 (some centres unmarked) [Example 41, hydrochloride]", "assayTarget": "PI3Kγ (Homo sapiens, UniProt P48736)", "IC50": "10 to 100 µM"}
{"compound": "C[C@H]1COCCN1c1nc2c(c(-c3ccc(NC(=O)NC4CC4)cc3)n1)CNC2", "assayTarget": "PI3Kγ (Homo sapiens, UniProt P48736)", "IC50": "10 to 100 µM"}
{"compound": "CCOC(=O)N1Cc2nc(N3CCOC[C@@H]3C)nc(-c3ccc(NC(=O)NC4CC4)cc3)c2C1", "assayTarget": "PI3Kγ (Homo sapiens, UniProt P48736)", "IC50": "> 100 µM"}
{"compound": "CCNC(=O)N1Cc2nc(N3CCOC[C@@H]3C)nc(-c3ccc(NC(=O)NCCO)cc3)c2C1", "assayTarget": "PI3Kγ (Homo sapiens, UniProt P48736)", "IC50": "10 to 100 µM"}
{"compound": "C[C@H]1COCCN1c1nc2c(c(-c3ccc(NC(=O)NC4CC4)cc3)n1)CN(C(=O)CO)C2", "assayTarget": "PI3Kγ (Homo sapiens, UniProt P48736)", "IC50": "10 to 100 µM"}

---

# assayTarget: PI3Kβ (Homo sapiens, UniProt P42338)
# Construct: endogenous in cells; host or cells: Jurkat (ATCC TIB-152, clone E6-1) and Ramos (ATCC CRL-1596), 1:1 lysate mix
# Sequence (P42338 whole entry): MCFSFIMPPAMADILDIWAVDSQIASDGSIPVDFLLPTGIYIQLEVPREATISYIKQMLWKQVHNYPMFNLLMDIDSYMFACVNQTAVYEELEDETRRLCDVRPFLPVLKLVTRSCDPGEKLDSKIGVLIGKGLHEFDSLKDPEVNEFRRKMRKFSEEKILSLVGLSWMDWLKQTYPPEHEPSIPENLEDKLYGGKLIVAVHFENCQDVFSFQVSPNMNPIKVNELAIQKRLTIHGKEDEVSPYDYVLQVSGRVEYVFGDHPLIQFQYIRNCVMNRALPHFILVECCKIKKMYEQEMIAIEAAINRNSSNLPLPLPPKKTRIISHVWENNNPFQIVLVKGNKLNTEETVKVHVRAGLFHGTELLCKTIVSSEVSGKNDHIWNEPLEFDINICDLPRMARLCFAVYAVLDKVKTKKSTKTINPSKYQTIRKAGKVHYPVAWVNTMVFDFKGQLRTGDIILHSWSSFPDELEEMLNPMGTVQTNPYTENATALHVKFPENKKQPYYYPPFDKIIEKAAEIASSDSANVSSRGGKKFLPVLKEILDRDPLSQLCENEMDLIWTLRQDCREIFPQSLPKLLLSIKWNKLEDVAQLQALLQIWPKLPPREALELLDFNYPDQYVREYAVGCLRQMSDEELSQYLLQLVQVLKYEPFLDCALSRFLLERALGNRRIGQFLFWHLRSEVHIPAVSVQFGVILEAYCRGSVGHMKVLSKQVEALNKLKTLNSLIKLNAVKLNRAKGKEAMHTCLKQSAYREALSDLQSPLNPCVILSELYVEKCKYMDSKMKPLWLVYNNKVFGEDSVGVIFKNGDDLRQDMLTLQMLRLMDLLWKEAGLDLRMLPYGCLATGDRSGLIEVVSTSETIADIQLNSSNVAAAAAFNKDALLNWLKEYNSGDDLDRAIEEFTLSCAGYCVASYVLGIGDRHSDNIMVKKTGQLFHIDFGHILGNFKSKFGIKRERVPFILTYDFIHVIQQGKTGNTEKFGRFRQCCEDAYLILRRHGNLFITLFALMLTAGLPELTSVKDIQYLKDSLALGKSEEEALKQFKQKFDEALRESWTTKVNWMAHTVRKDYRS
# Sequence (P27986 whole entry partner): as the sequence (P27986 whole entry partner) above
# experimentalDetails: kinobeads assay, PI3Kβ
# Type: binding
# protocolConditions: 1:1 mix of Jurkat and Ramos cell lysates, read-out: Inhibition values (IC50 in μM) as determined in the kinobeads assay, PI3Kβ
Counter-ions that a name gives are not always drawn.

{"molecule": "C[C@H]1COCCN1c1nc2c(c(-c3ccc(NC(=O)NC4CC4)cc3)n1)CN(C1CC1)C2 [Example 14]", "IC50": "> 100 µM"}
{"molecule": "CCNC(=O)Nc1ccc(-c2nc(N3CCOC[C@@H]3C)nc3c2CN(C=O)C3)cc1 [Example 3]", "IC50": "10 to 100 µM"}
{"molecule": "C[C@H]1COCCN1c1nc2c(c(-c3ccc(NC(=O)NC4CC4)cc3)n1)CN(C(=O)CN(C)C)C2 [Example 20]", "IC50": "10 to 100 µM"}
{"molecule": "C[C@H]1COCCN1c1nc2c(c(-c3ccc(NC(=O)NC4CC4)cc3)n1)CN(C(=O)C1CCCN1)C2 (stereo partly drawn) [Example 41, hydrochloride]", "IC50": "10 to 100 µM"}
{"molecule": "CC(CO)NC(=O)Nc1ccc(-c2nc(N3CCOC[C@@H]3C)nc3c2CN(C(C)C)C3)cc1 (stereo partly drawn) [Example 51, 2,2,2-trifluoroacetate]", "IC50": "> 100 µM"}
{"molecule": "CCOC(=O)N1Cc2nc(N3CCOC[C@@H]3C)nc(-c3ccc(NC(=O)NC4CC4)cc3)c2C1 [Example 9]", "IC50": "> 100 µM"}
{"molecule": "C[C@H]1COCCN1c1nc2c(c(-c3ccc(NC(=O)NCCO)cc3)n1)CNC2 [Example 19]", "IC50": "10 to 100 µM"}
{"molecule": "C[C@H]1COCCN1c1nc2c(c(-c3ccc(NC(=O)NCCO)cc3)n1)CN(C1CCCCC1)C2 [Example 38]", "IC50": "> 100 µM"}
{"molecule": "CCNC(=O)Nc1ccc(-c2nc(N3CCOC[C@@H]3C)nc3c2CN(C(C)C)C3)cc1 [Example 46, 2,2,2-trifluoroacetate]", "IC50": "> 100 µM"}
{"molecule": "CCOC(=O)Nc1ccc(-c2nc(N3CCOC[C@@H]3C)nc3c2CNC3)cc1 [Example 10]", "IC50": "> 100 µM"}
{"molecule": "C[C@H]1COCCN1c1nc2c(c(-c3ccc(NC(=O)NC4CC4)cc3)n1)CN(S(C)(=O)=O)C2 [Example 15]", "IC50": "> 100 µM"}
{"molecule": "C[C@H]1COCCN1c1nc2c(c(-c3ccc(NC(=O)NC4CC4)cc3)n1)CN(C(N)=O)C2 [Example 42, 2,2,2-trifluoroacetate]", "IC50": "10 to 100 µM"}
{"molecule": "C[C@H]1COCCN1c1nc2c(c(-c3ccc(NC(=O)NC4CC4)cc3)n1)CN(C(=O)C1CCCO1)C2 (stereo partly drawn) [Example 33]", "IC50": "10 to 100 µM"}
{"molecule": "CCNC(=O)Nc1ccc(-c2nc(N3CCOC[C@@H]3C)nc3c2CN(C(=O)OCC)C3)cc1 [Example 8]", "IC50": "> 100 µM"}
{"molecule": "CCNC(=O)N1Cc2nc(N3CCOC[C@@H]3C)nc(-c3ccc(NC(=O)NCCO)cc3)c2C1 [Example 37]", "IC50": "10 to 100 µM"}

---

# assayTarget: PI3Kβ (Homo sapiens, UniProt P42338)
# Construct: endogenous in cells; host or cells: Jurkat (ATCC TIB-152, clone E6-1) and Ramos (ATCC CRL-1596), 1:1 lysate mix
# experimentalDetails: kinobeads assay, PI3Kβ
# Format: binding
# protocolConditions: 1:1 mix of Jurkat and Ramos cell lysates, read-out: Inhibition values (IC50 in μM) as determined in the kinobeads assay, PI3Kβ

{"compound": "C[C@H]1COCCN1c1nc2c(c(-c3ccc(NC(=O)NC4CC4)cc3)n1)CN(C(=O)CCN(C)C)C2", "IC50": "10 to 100 µM"}
{"compound": "C[C@H]1COCCN1c1nc2c(c(-c3ccc(NC(=O)NC4CC4)cc3)n1)CN(C)C2", "IC50": "10 to 100 µM"}
{"compound": "C[C@H]1COCCN1C(=O)Nc1ccc(-c2nc(N3CCOC[C@@H]3C)nc3c2CNC3)cc1", "IC50": "> 100 µM"}
{"compound": "CCNC(=O)Nc1ccc(-c2nc(N3CCOC[C@@H]3C)nc3c2CNC3)cc1", "IC50": "10 to 100 µM"}
{"compound": "CC(C)CN1Cc2nc(N3CC4CCC(C3)O4)nc(-c3ccc(NC(=O)NCCO)cc3)c2C1 [Example 48, 2,2,2-trifluoroacetate]", "IC50": "> 100 µM"}
{"compound": "CC(C)N1Cc2nc(N3CCOC[C@@H]3C)nc(-c3ccc(NC(=O)NCCC#N)cc3)c2C1 [Example 52, 2,2,2-trifluoroacetate]", "IC50": "> 100 µM"}
{"compound": "C[C@H]1COCCN1c1nc2c(c(-c3ccc(NC(=O)NC4CC4)cc3)n1)CNC2", "IC50": "10 to 100 µM"}
